Tested on: Trypanosoma cruzi
assayName: Antitrypanosomal activity against trypomastigote stage of Trypanosoma cruzi Y measured after 24 hrs using propidium iodide by neubauer chamber method
Assay type: functional, organism-based
assayReadout: IC50 (µM)
# unit: µM | format: bare number

**Query** So what does the record say about IC50 for `C=CCN1C(=O)CS/C1=N\c1sc2c(c1C(=O)OC(C)C)CCCC2` ?
**Result** 10.3

* * *

experimentalTarget: UniProt P25779
Sequence (P25779 123-467 limits assumed): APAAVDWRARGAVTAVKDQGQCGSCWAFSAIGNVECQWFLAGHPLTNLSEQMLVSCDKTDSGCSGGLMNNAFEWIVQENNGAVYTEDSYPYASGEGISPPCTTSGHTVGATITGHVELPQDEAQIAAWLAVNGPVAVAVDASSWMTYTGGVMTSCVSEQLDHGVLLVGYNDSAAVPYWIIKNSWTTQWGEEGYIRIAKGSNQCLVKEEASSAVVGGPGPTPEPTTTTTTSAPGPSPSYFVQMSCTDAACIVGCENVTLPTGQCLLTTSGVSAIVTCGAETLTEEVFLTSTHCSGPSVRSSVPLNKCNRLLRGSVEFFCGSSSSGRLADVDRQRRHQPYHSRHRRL
assayName: Inhibition of Trypanosoma cruzi cruzain at 100 uM pre-incubated for 10 mins followed by addition of Z-Phe-Arg-aminomethylcoumarin as substrate measured after 5 mins by spectrofluorimetry
Rule: true (1) for inhibition not less than 80%, false (0) for anything less.

molecule | class
C=CCN1C(=O)CS/C1=N\c1sc2c(c1C(=O)OC(C)C)CCCC2 | false (0)

**Query** Given the entry C=CCN1C(=O)C(C(=O)OCC)S/C1=N\c1sc2c(c1C(=O)OCC)CCCC2 (stereo not drawn) , answer whether its inhibition meets or surpasses 80%.
**Result** false (0)

**Query** Quick check: does `CC(C)OC(=O)c1c(NC(=S)Nc2ccccc2)sc2c1CCCC2` have inhibition greater than or equal to 80%?
**Result** false (0)

**Query** Reported inhibition at or above 80%? CCOC(=O)c1c(/N=C2\SC(CC(=O)O)C(=O)N2c2ccccc2)sc2c1CCCC2 (stereo not drawn)
**Result** true (1)

* * *

experimentalTarget: UniProt P25779
assayName: Inhibition of Trypanosoma cruzi cruzain at 100 uM using Z-Phe-Arg-aminomethylcoumarin as substrate measured after 5 mins by spectrofluorimetry
assayReadout: inhibition (%)
# output: bare number, implied unit %

Answered examples (6):
compound | inhibition, %
CC(C)OC(=O)c1c(/N=c2\scc(-c3ccccc3)n2-c2ccccc2)sc2c1CCCC2 | 13
C=CCNC(=S)Nc1sc2c(c1C(=O)OC(C)C)CCCC2 | 29
CC(C)OC(=O)c1c(/N=C2\SCC(=O)N2c2ccccc2)sc2c1CCCC2 | 33
C=CCN1C(=O)C(CC(=O)O)S/C1=N\c1sc2c(c1C(=O)OC(C)C)CCCC2 (stereo not drawn) | 52
CCOC(=O)c1c(/N=C2\SC(CC(=O)O)C(=O)N2c2ccccc2)sc2c1CCCC2 (stereo not drawn) | 66
CC(C)OC(=O)c1c(NC(=S)Nc2ccccc2)sc2c1CCCC2 | 43

**Query** Could you tell me which inhibition is on file for `C=CCN1C(=O)CS/C1=N\c1sc2c(c1C(=O)OC(C)C)CCCC2` ?
**Result** 45

**Query** // returns reported inhibition for input `C=CCN1C(=O)CS/C1=N\c1sc2c(c1C(=O)OCC)CCCC2`
**Result** 23

**Query** Fill blank: measured inhibition of the compound `C=CCn1c(C)c(C(=O)OCC)s/c1=N\c1sc2c(c1C(=O)OCC)CCCC2` is ____.
**Result** 34

**Query** GET /values?readout=inhibition&item= `C=CCn1c(-c2ccccc2)cs/c1=N\c1sc2c(c1C(=O)OCC)CCCC2`
**Result** 87

**Query** Fill blank: measured inhibition of the compound `C=CCNC(=S)Nc1sc2c(c1C(=O)OCC)CCCC2` is ____.
**Result** 29

**Query** Reported inhibition, compound `CCOC(=O)c1c(NC(=S)Nc2ccccc2)sc2c1CCCC2` : ____
**Result** 12

**Query** I am curious: what inhibition value has been reported for `C=CCn1c(-c2ccccc2)cs/c1=N\c1sc2c(c1C(=O)OC(C)C)CCCC2` ?
**Result** 29

**Query** For CCOC(=O)c1c(/N=C2\SC(C(=O)OCC)C(=O)N2c2ccccc2)sc2c1CCCC2 (stereo not drawn) , what is its reported inhibition?
**Result** 46

**Query** Item C=CCN1C(=O)C(CC(=O)O)S/C1=N\c1sc2c(c1C(=O)OCC)CCCC2 (stereo not drawn) has what recorded inhibition?
**Result** 64
